For each of the compounds below, state its pIC50.
test system: ATM-phosphorylated KAP1; test: Intracellular ATM-phosphorylated KAP1 level, ICW assay in MCF7 cells; assay type: cell-based, Human; settings: MCF7 cells, 2 h compound, 10 Gy irradiation, further 1 h; read-out: pKAP1 IC50
Scale: negative log10 of molar concentration, which is what pIC50 denotes.

Qu. Give the measured pIC50 of C[C@H]1CNc2c(-c3ccc(OCCCN4CCC(C)(C)CC4)nc3)ccc3ncc4c(c23)n1c(=O)n4C [Example A-212] .
Ans. 9.43

Qu. Quick one: C[C@H]1CNc2c(-c3ccc(OCCCN4CCCCC4)nc3)ccc3ncc4c(c23)n1c(=O)n4C [Example A-198]
Ans. 9.19

Qu. Please give the result for CC[C@H]1CNc2c(-c3ccc(OCCCN4CCCCC4)nc3)ccc3ncc4c(c23)n1c(=O)n4C [Example A-203] too.
Ans. 9.08

Qu. Repeat for the following compound: C[C@@H]1CNc2c(-c3ccc(OCCCN4CCCCC4)nc3)ccc3ncc4c(c23)n1c(=O)n4C [Example A-199]
Ans. 9.11

Qu. Also check CC1CCN(CCCOc2ccc(-c3ccc4ncc5c6c4c3NC[C@H](C)n6c(=O)n5C)cn2)CC1 [Example A-211]
Ans. 9.48

====

Measured IC50 on ATM (Homo sapiens (Human), UniProt Q13315) follows.
Sequence (Q13315 whole entry): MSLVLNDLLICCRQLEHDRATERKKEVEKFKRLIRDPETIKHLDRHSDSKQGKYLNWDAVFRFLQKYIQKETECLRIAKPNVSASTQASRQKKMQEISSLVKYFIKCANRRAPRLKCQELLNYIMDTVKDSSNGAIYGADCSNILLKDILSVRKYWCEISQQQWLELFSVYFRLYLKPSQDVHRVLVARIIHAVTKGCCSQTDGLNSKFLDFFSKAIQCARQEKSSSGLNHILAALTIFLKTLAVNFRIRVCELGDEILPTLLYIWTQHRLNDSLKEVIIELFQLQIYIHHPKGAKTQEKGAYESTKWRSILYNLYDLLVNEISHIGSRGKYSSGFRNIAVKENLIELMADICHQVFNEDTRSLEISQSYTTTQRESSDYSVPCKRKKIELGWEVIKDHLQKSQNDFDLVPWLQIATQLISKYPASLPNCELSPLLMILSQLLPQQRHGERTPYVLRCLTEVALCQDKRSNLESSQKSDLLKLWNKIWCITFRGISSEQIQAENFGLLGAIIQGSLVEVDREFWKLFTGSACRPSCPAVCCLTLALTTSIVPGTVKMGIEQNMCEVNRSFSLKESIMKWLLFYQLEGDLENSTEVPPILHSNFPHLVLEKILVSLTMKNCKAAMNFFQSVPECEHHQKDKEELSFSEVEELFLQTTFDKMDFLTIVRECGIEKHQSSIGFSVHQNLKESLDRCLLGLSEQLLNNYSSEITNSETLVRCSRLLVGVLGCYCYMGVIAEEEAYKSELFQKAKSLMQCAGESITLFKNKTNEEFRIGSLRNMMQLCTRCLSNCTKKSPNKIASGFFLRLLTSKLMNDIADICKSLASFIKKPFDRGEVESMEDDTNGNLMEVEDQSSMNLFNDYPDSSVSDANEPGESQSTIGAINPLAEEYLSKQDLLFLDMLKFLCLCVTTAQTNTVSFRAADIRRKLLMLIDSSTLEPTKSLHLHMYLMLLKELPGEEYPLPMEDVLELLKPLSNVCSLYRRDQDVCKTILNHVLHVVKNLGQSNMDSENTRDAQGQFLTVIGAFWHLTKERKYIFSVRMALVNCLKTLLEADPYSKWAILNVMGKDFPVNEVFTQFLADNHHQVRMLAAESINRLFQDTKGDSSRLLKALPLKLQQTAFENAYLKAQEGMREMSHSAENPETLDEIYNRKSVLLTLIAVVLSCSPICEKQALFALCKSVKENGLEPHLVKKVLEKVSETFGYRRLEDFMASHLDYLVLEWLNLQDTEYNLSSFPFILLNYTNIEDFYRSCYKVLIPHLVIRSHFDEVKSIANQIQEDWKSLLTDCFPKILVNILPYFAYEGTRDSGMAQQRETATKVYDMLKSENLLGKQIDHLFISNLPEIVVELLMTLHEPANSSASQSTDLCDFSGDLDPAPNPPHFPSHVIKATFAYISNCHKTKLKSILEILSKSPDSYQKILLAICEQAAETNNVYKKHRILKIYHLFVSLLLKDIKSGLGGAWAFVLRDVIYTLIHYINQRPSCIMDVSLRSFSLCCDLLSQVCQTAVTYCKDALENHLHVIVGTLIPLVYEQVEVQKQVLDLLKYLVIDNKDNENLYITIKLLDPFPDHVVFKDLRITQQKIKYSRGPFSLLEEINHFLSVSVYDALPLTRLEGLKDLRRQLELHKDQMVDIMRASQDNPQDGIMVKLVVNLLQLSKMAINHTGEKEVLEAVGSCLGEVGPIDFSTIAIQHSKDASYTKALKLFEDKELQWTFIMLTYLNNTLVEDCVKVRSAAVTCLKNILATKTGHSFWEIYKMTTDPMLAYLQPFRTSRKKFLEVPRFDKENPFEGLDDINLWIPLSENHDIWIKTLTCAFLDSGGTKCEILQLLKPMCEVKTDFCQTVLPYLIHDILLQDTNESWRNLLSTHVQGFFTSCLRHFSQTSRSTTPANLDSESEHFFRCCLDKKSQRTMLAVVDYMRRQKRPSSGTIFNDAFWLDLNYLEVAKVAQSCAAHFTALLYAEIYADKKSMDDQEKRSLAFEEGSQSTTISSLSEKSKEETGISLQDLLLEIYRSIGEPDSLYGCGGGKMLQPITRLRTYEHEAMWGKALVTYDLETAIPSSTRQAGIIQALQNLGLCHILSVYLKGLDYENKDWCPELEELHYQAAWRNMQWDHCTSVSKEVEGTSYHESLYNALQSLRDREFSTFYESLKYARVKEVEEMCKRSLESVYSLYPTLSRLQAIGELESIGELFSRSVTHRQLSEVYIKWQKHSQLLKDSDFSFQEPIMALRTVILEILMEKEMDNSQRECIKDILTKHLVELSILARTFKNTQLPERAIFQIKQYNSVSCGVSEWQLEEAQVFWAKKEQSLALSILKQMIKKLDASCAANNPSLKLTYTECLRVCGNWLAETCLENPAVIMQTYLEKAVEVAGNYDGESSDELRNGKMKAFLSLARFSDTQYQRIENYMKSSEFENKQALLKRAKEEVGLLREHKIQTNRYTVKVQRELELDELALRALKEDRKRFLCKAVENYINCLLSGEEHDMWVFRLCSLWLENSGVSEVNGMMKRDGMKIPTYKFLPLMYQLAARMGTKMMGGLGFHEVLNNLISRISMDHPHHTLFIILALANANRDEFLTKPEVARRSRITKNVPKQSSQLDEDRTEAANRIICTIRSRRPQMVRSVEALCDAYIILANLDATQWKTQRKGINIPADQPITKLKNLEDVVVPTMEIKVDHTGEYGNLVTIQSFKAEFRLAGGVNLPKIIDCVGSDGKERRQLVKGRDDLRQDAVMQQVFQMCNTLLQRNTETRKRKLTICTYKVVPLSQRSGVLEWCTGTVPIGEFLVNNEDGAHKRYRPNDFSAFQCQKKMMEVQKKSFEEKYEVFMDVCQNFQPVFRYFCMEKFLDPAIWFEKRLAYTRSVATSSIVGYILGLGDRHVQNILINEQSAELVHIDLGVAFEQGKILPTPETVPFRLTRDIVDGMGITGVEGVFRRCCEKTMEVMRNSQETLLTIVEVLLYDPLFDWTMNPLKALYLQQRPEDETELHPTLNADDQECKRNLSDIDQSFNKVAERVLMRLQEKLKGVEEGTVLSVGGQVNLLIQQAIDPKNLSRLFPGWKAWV
Give the number; nM is assumed, so skip it.

Qu. Fill in: IC50 of C[C@@H]1CNc2c(-c3ccc(OCCCN4CCCCC4)nc3)ccc3ncc4c(c23)n1c(=O)n4C is ___
Ans. 0.92

Qu. Try this compound next: CC1CCN(CCCOc2ccc(-c3ccc4ncc5c6c4c3NC[C@H](C)n6c(=O)n5C)cn2)CC1
Ans. 0.33

Qu. Can you check CC1CCN(CCCOc2ccc(-c3ccc4ncc5c6c4c3OC[C@H](C)n6c(=O)n5C)cn2)CC1 next?
Ans. 0.29

Qu. Can you handle CC(C)C[C@H]1COc2c(-c3ccc(OCCCN4CCCCC4)nc3)c(F)cc3ncc4c(c23)n1c(=O)n4C next?
Ans. 0.2

Qu. Moving on to the next compound: Cn1c(=O)n2c3c4c(c(-c5ccc(OCCCN6CCCCC6)nc5)c(F)cc4ncc31)NCC21CCC1
Ans. 0.53

Qu. Next compound up: C[C@@H]1CNc2c(-c3ccc(OCCCN4CCCCC4)nc3)c(F)cc3ncc4c(c23)n1c(=O)n4C
Ans. 0.41

Qu. Repeat with CC[C@@H]1COc2c(-c3ccc(OCCCN(C)C)nc3)ccc3ncc4c(c23)n1c(=O)n4C
Ans. 0.4

Qu. Let us now turn to CN(C)CCCOc1ccc(-c2ccc3ncc4c5c3c2OCC2(CC2)n5c(=O)n4C)cn1
Ans. 0.37

Qu. Please do the same for CC[C@H]1CNc2c(-c3ccc(OCCCN4CCCCC4)nc3)c(F)cc3ncc4c(c23)n1c(=O)n4C as well.
Ans. 0.51

Qu. Proceed to Cn1c(=O)n2c3c4c(c(-c5ccc(OCCCN6CCCCC6)nc5)c(F)cc4ncc31)NCC2(C)C
Ans. 0.65

Qu. Note, next up: CC[C@@H]1COc2c(-c3ccc(OCCCN4CCCCC4)nc3)ccc3ncc4c(c23)n1c(=O)n4C
Ans. 0.22

Qu. Also Cn1c(=O)n2c3c4c(c(-c5ccc(OCCCN6CCCCC6)nc5)c(F)cc4ncc31)OCC21CC1 ?
Ans. 0.54

Qu. Would you mind doing C[C@H]1COc2c(-c3ccc(OCCCN4CCC(C)(C)CC4)nc3)ccc3ncc4c(c23)n1c(=O)n4C as well?
Ans. 0.44

Qu. Next compound up: C[C@H]1COc2c(-c3ccc(OCCCN4CCC5(CC4)COC5)nc3)c(F)cc3ncc4c(c23)n1c(=O)n4C
Ans. 0.42

Qu. Now give it for Cn1c(=O)n2c3c4c(c(-c5ccc(OCCCN6CC[C@H](C#N)C6)nc5)c(F)cc4ncc31)OCC21CCC1 too.
Ans. 0.43
